// pKd lookup, one value per entry
Molecular target: T1, cynomolgus (Macaca fascicularis) ST2L extracellular domain with C-terminal His6 tag (Macaca fascicularis (cynomolgus), UniProt Q01638 19-321 (human entry))
T1 construct: also called cyno ST2L-ECD; cynoST2L-ECD
T1 chain: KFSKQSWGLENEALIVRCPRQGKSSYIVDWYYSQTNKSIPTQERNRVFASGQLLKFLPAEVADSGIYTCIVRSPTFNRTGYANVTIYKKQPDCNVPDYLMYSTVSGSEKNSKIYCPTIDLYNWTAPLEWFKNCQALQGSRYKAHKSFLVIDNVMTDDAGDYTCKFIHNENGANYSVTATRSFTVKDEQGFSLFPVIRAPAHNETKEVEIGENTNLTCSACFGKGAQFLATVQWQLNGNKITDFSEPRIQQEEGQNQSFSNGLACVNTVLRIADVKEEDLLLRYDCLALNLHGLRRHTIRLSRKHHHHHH
Test: ProteOn SPR, mAb captured, ST2L-ECD in solution
Please treat pKd as minus the base-10 logarithm of the molar concentration.

Use the examples below as a reference point.
binder	pKd
STLM200 (antibody, V domains shown, C2494 HFA mAb: VH STLH194 + VL STLL277 (L8)) VH: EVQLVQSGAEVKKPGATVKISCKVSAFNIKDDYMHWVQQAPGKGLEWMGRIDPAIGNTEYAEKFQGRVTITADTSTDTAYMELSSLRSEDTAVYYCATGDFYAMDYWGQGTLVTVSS VL: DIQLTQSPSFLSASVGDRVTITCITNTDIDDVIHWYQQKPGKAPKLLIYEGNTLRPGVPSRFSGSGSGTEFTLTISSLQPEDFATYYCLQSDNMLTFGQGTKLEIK	9.87
STLM194 (antibody, V domains shown, C2494 HFA mAb: VH STLH195 + VL STLL273 (A20)) VH: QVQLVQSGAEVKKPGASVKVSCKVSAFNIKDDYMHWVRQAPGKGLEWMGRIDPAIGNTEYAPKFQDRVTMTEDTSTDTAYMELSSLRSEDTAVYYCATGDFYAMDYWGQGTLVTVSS VL: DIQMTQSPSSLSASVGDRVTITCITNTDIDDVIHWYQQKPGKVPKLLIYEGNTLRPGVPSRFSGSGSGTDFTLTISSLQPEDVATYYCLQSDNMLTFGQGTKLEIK	8.72
STLM201 (antibody, V domains shown, C2494 HFA mAb: VH STLH194 + VL STLL276 (L12)) VH: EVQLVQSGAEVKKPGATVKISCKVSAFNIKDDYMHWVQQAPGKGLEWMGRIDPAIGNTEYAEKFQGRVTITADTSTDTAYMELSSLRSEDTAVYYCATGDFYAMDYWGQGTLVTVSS VL: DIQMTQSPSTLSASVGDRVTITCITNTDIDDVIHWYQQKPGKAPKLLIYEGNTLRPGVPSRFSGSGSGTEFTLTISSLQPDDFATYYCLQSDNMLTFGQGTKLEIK	9.94
STLM205 (antibody, V domains shown, C2494 HFA mAb: VH STLH194 + VL STLL272 (O18)) VH: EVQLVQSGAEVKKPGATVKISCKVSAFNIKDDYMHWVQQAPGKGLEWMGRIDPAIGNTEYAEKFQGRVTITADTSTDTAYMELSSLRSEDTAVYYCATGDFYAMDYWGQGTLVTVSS VL: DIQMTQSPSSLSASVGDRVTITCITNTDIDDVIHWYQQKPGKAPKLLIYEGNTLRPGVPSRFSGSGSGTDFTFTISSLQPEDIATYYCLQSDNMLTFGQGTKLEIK	10.00
STLM191 (antibody, V domains shown, C2494 HFA mAb: VH STLH195 + VL STLL276 (L12)) VH: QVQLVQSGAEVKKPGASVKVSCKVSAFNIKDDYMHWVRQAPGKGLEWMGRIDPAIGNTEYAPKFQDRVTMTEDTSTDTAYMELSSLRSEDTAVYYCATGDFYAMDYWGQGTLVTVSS VL: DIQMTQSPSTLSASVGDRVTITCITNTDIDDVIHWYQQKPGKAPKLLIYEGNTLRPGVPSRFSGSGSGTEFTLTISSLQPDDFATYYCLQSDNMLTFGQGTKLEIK	9.18
STLM187 (antibody, V domains shown, C2494 HFA mAb: VH STLH195 (IGHV1-24*01) + VL STLL280 (O12b)) VH: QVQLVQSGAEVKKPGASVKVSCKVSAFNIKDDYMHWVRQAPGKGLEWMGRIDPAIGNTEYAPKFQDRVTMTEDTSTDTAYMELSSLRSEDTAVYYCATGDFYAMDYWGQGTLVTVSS VL: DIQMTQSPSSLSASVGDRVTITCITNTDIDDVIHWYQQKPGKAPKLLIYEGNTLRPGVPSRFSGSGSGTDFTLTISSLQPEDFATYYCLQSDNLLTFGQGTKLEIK	8.96

INPUT: Find the recorded pKd belonging to STLM203 (antibody, V domains shown, C2494 HFA mAb: VH STLH194 + VL STLL274 (O12)) VH: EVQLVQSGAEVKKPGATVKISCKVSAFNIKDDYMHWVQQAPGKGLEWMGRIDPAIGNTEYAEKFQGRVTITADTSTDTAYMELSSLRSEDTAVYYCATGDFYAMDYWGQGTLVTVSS VL: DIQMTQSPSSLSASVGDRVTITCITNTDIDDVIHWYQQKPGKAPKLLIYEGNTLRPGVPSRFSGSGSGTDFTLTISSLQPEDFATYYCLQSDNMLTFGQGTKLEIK and report it.
OUTPUT: 9.95
